Biological target: T1, SNTA1, Q13424
T1 sequence (Q13424 82-180, limits assumed, looked up): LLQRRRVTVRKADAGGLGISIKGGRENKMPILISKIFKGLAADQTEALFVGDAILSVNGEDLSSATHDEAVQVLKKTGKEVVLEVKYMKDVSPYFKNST
Assay: holdup assay
Set-up: key: below the threshold = too weak to quantify, mostly under pKd 3.1 to 4
Conditions: plain residues with an end cap or a label only (N-terminal biotin on a linker: ado-ado)
measurement.kind: pKd

> print(dat)
                        binder       observed.value
1   YYKRPVQEWV [MMP24, Q9Y5R2]  below the threshold
2   RRLPGKETMA [GRIK2, Q13002]  below the threshold
3   QMNQTLPVQV [EPHB3, P54753]  below the threshold
4  EALLQMESVA [CAVIN3, Q969G5]  below the threshold

Record pKd per entry; entries follow.
1. QHKTQLQTLI [BPIFA2, Q96DR5]
2. CLREWCDAFL [BANF1, O75531]
3. RHGSCVETSL [TMEM151B, Q8IW70]

1: below the threshold; 2: below the threshold; 3: 4.82

Record pKd per entry; entries follow.
1. SAKVRTVTSV [RASL11B, Q9BPW5]
2. IPLDGETEEL [MYOZ1, Q9NP98]
3. KSGKQTMLVV [TRIM29, Q14134]
4. YRLAQESGLV [ABCC6, O95255]
5. SARSRLSSNL [HCN2, Q9UL51]
6. EVNETDDTKM [KCNJ1, P48048]
7. LSEFKAMDSI [CTNNA1, P35221]
8. SNAGNTATKA [NOSTRIN, Q8IVI9]

below the threshold
below the threshold
3.49
below the threshold
below the threshold
below the threshold
below the threshold
below the threshold

Record pKd per entry; entries follow.
1. LKVPPEERLI [CRB2, Q5IJ48]
2. DDEDRLVIEI [ZNF831, Q5JPB2]
3. VRNLPESEEL [MYOZ3, Q8TDC0]

below the threshold
below the threshold
3.57

Record pKd per entry; entries follow.
1. RRRESYSTTV [EVI5, O60447]
2. DDPSTAETVL [ABCA7, Q8IZY2]

4.41
4.71
